measuredTarget: Glucocorticoid receptor (Homo sapiens) (UniProt P04150)
Sequence (P04150 whole entry, looked up): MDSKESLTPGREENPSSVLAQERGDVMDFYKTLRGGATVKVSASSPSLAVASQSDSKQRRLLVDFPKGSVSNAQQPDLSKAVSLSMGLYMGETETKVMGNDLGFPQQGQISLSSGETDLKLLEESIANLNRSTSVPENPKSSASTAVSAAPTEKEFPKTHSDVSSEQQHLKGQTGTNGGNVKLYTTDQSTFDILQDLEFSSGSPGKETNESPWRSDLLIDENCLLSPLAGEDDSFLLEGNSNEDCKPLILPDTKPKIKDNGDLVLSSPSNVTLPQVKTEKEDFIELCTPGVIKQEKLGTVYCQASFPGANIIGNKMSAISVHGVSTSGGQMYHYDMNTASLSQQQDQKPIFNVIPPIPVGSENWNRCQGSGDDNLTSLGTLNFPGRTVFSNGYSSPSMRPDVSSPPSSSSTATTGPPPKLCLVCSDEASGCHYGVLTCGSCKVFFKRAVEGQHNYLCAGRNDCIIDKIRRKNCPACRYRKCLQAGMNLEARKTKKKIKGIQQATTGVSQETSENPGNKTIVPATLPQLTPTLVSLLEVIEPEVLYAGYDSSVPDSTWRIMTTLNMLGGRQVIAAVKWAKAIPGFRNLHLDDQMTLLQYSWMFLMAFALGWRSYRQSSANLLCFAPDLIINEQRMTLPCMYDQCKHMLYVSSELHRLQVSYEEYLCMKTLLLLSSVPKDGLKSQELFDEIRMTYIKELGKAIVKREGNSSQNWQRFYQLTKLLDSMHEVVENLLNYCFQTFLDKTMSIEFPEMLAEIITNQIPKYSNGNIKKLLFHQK
protocol: qHTS assay to identify small molecule agonists of the glucocorticoid receptor (GR) signaling pathway (AID 720691); on activation: on the % scale 0 is the no-effect control and ±100 the full control effect
appliedConditions: GR-bla HeLa, beta-lactamase reporter ratio, 18 h; series mostly up to 62.4 µM
Calls of active or inactive are those of the source. The call rests on the fitted dose curve; in most records, active means well fitted activation curve with a large enough effect in the signal ratio in the repeat runs (not every such curve was filed as active); inconclusive means weak or mixed curves, or effect the other way; inactive means no such curve, though single readings can be large or run the other way; the % refers to the signal ratio.
Outcomes: active, inactive

{"compound": "O=C(O)CC(C(=O)O)S(=O)(=O)O (stereo not given)", "labelValue": "inactive"}
{"compound": "O=C(O)CCSCCC(=O)O", "labelValue": "inactive"}
{"compound": "C[N+]1(C)CCCC(OC(=O)C(O)(c2ccccc2)c2ccccc2)C1 (stereo not given)", "labelValue": "active"}
{"compound": "CC1=CCC(O)(C(C)C)CC1 (stereo not given)", "labelValue": "inactive"}
{"compound": "CC(C)(CCC(=O)O)C(=O)O", "labelValue": "inactive"}
{"compound": "C=CN1CCCCCC1=O", "labelValue": "inactive"}
{"compound": "C[C@@H]1C[C@H]2[C@@H]3C[C@H](F)C4=CC(=O)C(Cl)=C[C@]4(C)[C@@]3(F)[C@@H](O)C[C@]2(C)[C@@]1(O)C(=O)CO", "labelValue": "active"}
{"compound": "CC/C=C\\CCOC(C)OCC (stereo not given)", "labelValue": "inactive"}
{"compound": "O=C1CCCCCCCCCCCCCCO1", "labelValue": "inactive"}
{"compound": "[K+]", "labelValue": "inactive"}

----------
measuredTarget: Cytochrome P450 2C19 (Homo sapiens)
protocol: Cytochrome P450 Family 2 Subfamily C Member 19 (CYP2C19) small molecule antagonists: luciferase reporter qHTS assay (AID 1671197); further: nearly all actives have a fitted effect of over 65% in size
appliedConditions: P450-Glo CYP2C19 enzyme, luciferin luminescence, 1 h; series mostly up to 52.9 µM
Inconclusive results are not listed. The source made the active and inactive calls. Calls follow the shape of the dose curve; as a rule, active = well fitted inhibition curve with a large enough effect in the repeat runs; inconclusive = weak or mixed curves; inactive = no such curve, though single readings can be large or run the other way.
Outcomes: label 1 (active), label 0 (inactive)

{"compound": "CCCCOCCOC(=O)CCCCCCCCC(=O)OCCOCCCC", "measuredTarget": "Cytochrome P450 2C19 (Homo sapiens)", "labelValue": "label 1"}
{"compound": "C[N+]1(C)[C@@H]2CC(OC(=O)[C@H](CO)c3ccccc3)C[C@H]1[C@@H]1O[C@@H]12 (some centres undefined)", "measuredTarget": "Cytochrome P450 2C19 (Homo sapiens)", "labelValue": "label 0"}
{"compound": "CO[C@@]1(NC(=O)C(C(=O)O)c2ccc(O)cc2)C(=O)N2C(C(=O)O)=C(CSc3nnnn3C)CO[C@@H]21 (some centres undefined)", "measuredTarget": "Cytochrome P450 2C19 (Homo sapiens)", "labelValue": "label 0"}
{"compound": "CCCCCC(C)N (centres undefined)", "measuredTarget": "Cytochrome P450 2C19 (Homo sapiens)", "labelValue": "label 0"}
{"compound": "N[C@@H](CCC(=O)O)C(=O)O", "measuredTarget": "Cytochrome P450 2C19 (Homo sapiens)", "labelValue": "label 1"}
{"compound": "CC1CCC(CO)CC1 (centres undefined)", "measuredTarget": "Cytochrome P450 2C19 (Homo sapiens)", "labelValue": "label 0"}
{"compound": "NC(=O)N[C@@H](CCC(=O)O)C(=O)O", "measuredTarget": "Cytochrome P450 2C19 (Homo sapiens)", "labelValue": "label 0"}
{"compound": "Nc1ccn([C@@H]2O[C@H](CO)[C@@H](O)C2(F)F)c(=O)n1", "measuredTarget": "Cytochrome P450 2C19 (Homo sapiens)", "labelValue": "label 0"}
{"compound": "CC(C)C1CCC(O)CC1 (centres undefined)", "measuredTarget": "Cytochrome P450 2C19 (Homo sapiens)", "labelValue": "label 0"}
{"compound": "CC(COc1ccccc1)NN (centres undefined)", "measuredTarget": "Cytochrome P450 2C19 (Homo sapiens)", "labelValue": "label 0"}
{"compound": "O=[N+]([O-])c1cncn1CCN1CCOCC1", "measuredTarget": "Cytochrome P450 2C19 (Homo sapiens)", "labelValue": "label 0"}
{"compound": "CC(=O)N1C[C@H](O)C[C@H]1C(=O)O", "measuredTarget": "Cytochrome P450 2C19 (Homo sapiens)", "labelValue": "label 0"}
{"compound": "CC(=O)OCC(=O)[C@@]1(O)[C@H](C)C[C@H]2[C@@H]3CCC4=CC(=O)C=C[C@]4(C)[C@@]3(F)[C@@H](O)C[C@@]21C", "measuredTarget": "Cytochrome P450 2C19 (Homo sapiens)", "labelValue": "label 0"}
{"compound": "CC(C)(C)C(=O)c1ccccc1", "measuredTarget": "Cytochrome P450 2C19 (Homo sapiens)", "labelValue": "label 0"}

----------
measuredTarget: Cytochrome P450 3A4 (Homo sapiens)
protocol: Cytochrome P450 Family 3 Subfamily A Member 4 (CYP3A4) small molecule antagonists: luciferase reporter qHTS assay (AID 1671201); further: nearly all actives have a fitted effect of over 50% in size
appliedConditions: P450-Glo CYP3A4 enzyme, luciferin luminescence, 1 h; series mostly up to 115 µM
Records with an inconclusive call do not appear. Calls of active or inactive are those of the source. The call rests on the fitted dose curve; in most records, active means well fitted inhibition curve with a large enough effect in the repeat runs; inconclusive means weak or mixed curves; inactive means no such curve, though single readings can be large or run the other way.
Outcomes: active, inactive

{"compound": "O=Cc1cccc(Br)c1", "labelValue": "active"}
{"compound": "CCOC(=O)C1=NOC(c2ccccc2)(c2ccccc2)C1", "labelValue": "inactive"}
{"compound": "CC(C)=CCC/C(C)=C/C#N", "labelValue": "inactive"}
{"compound": "COc1cccc(OC)c1C(=O)N[C@@H]1C(=O)N2[C@@H]1SC(C)(C)[C@@H]2C(=O)O", "labelValue": "inactive"}
{"compound": "COCCOCC(OC)OC", "labelValue": "inactive"}
{"compound": "CC1=CCC(O)(C(C)C)CC1 (stereo unspecified)", "labelValue": "inactive"}
{"compound": "Nc1c2c(nc3c1CCC3)CCCC2", "labelValue": "inactive"}
{"compound": "CO[C@@]1(NC(=O)CSC[C@@H](N)C(=O)O)C(=O)N2C(C(=O)O)=C(CSc3nnnn3C)CS[C@@H]21", "labelValue": "inactive"}
{"compound": "CCN(Cc1ccccc1)c1ccccc1", "labelValue": "inactive"}
{"compound": "CCCn1cc[n+](C)c1C", "labelValue": "inactive"}
{"compound": "CC(C)CC(C)(N)C#N (stereo unspecified)", "labelValue": "inactive"}

----------
measuredTarget: Estrogen receptor beta (Homo sapiens) (UniProt Q92731)
Sequence (Q92731 whole entry, looked up): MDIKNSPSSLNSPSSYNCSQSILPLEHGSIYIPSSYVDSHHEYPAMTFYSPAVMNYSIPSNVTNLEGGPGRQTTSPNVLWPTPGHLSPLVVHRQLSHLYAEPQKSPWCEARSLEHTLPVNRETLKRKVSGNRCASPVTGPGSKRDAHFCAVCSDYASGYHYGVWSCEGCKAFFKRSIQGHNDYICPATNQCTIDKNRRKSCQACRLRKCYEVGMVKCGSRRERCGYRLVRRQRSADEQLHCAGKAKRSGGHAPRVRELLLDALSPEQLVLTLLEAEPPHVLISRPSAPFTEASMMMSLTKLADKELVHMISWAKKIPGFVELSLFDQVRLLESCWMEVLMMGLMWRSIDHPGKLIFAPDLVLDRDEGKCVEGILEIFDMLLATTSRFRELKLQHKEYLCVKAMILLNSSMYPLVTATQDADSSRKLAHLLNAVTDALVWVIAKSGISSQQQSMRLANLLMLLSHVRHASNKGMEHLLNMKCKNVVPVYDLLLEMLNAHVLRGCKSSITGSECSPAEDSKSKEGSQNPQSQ
protocol: qHTS assay to identify small molecule antagonists of the estrogen receptor beta (ER-beta) signaling pathway (AID 1259378)
appliedConditions: ER-beta-UAS-bla HEK293T, beta-lactamase FRET ratio, 16 h; series mostly up to 92.4 µM
Inconclusive results are not listed. Activity calls are given as the source filed them. Calls come from the whole dose curve; as a rule, active = well fitted inhibition curve with a large enough effect in the signal ratio in the repeat runs (not every such curve was filed as active); inconclusive = weak or mixed curves, or effect the other way; inactive = no such curve, though single readings can be large or run the other way; the % refers to the signal ratio.
Outcomes: yes for active, no for inactive

{"molecule": "N[C@H](C(=O)O)[C@@H](O)c1ccc(O)c(O)c1", "labelValue": "no"}
{"molecule": "COC(=O)C1=C(C)NC(C)=C(C(=O)OC(C)C)C1c1cccc2nonc12 (stereo not drawn)", "labelValue": "yes"}
{"molecule": "O=[N+]([O-])c1cncn1CCN1CCOCC1", "labelValue": "no"}
{"molecule": "C=CCCCCCCCCC(=O)OCC", "labelValue": "no"}
{"molecule": "O=C(O)Cc1csc(-c2ccc(Cl)cc2)n1", "labelValue": "no"}
{"molecule": "O=Cc1cccc(Br)c1", "labelValue": "no"}
{"molecule": "NS(=O)(=O)Cc1noc2ccccc12", "labelValue": "no"}
{"molecule": "C=COC(=O)C(C)(CC)CCC(C)C (stereo not drawn)", "labelValue": "no"}

----------
measuredTarget: Androgen receptor (Homo sapiens)
protocol: qHTS assay to identify small molecule agonists of the androgen receptor (AR) signaling pathway using the MDA cell line (AID 743040; further: nearly all actives have a fitted effect of over 20% in size)
appliedConditions: MDA-kb2 AR-luc cells, MMTV luciferase, 16 h; series mostly up to 70.3 µM
Activity calls are given as the source filed them. Calls follow the shape of the dose curve; as a rule, active = well fitted activation curve with a large enough effect in the repeat runs; inconclusive = weak or mixed curves; inactive = flat fitted curve, though single readings scatter.
Outcomes: active, inactive

{"compound": "CC(C)(C)c1ccc(-c2ccc(C(C)(C)C)cc2)cc1", "labelValue": "inactive"}
{"compound": "COCCOC[C@H](CC1(C(=O)NC2CCC(C(=O)O)CC2)CCCC1)C(=O)Oc1ccc2c(c1)CCC2 (some centres not stated)", "labelValue": "inactive"}
{"compound": "C[C@@H]1C[C@H]2[C@@H]3C[C@H](F)C4=CC(=O)C(Cl)=C[C@]4(C)[C@@]3(F)[C@@H](O)C[C@]2(C)[C@@]1(O)C(=O)CO", "labelValue": "active"}
{"compound": "CC[N+](CC)(CC)CCOc1cccc(OCC[N+](CC)(CC)CC)c1OCC[N+](CC)(CC)CC", "labelValue": "inactive"}
{"compound": "CC(=O)N[C@H]1[C@H]([C@H](O)[C@H](O)CO)OC(C(=O)O)=C[C@@H]1N=C(N)N", "labelValue": "inactive"}
{"compound": "CCN(Cc1ccccc1)c1ccccc1", "labelValue": "inactive"}
{"compound": "O=S(=O)(O)c1cc(O)c(O)c(S(=O)(=O)O)c1", "labelValue": "inactive"}

----------
measuredTarget: Nuclear receptor subfamily 1 group I member 2 (Rattus norvegicus)
protocol: Rat pregnane X receptor (rPXR) activation by small molecules, qHTS assay (AID 1346983); further: on the % scale 0 is the no-effect control and ±100 the full control effect; nearly all actives have a fitted effect of over 20% in size
appliedConditions: rPXR luciferase reporter cells, One-Glo luminescence, 24 h; stronger effect = higher value
Records with an inconclusive call do not appear.
Measured max activation values are reported for all entries that follow.

{"molecule": "CCCCCC(C)N (stereo not given)", "max activation / %": -3.3}
{"molecule": "Cc1nc2ccc(CN(C)c3ccc(C(=O)N[C@@H](CCC(=O)O)C(=O)O)s3)cc2c(=O)[nH]1", "max activation / %": -1.92}
{"molecule": "COc1cc(C(=O)NCc2ccc(OCCN(C)C)cc2)cc(OC)c1OC", "max activation / %": 4.67}
{"molecule": "NCCCC[C@H](N[C@@H](CCc1ccccc1)C(=O)O)C(=O)N1CCC[C@H]1C(=O)O", "max activation / %": -3.44}
{"molecule": "CC(=O)N1C[C@H](O)C[C@H]1C(=O)O", "max activation / %": -1.61}
